Molecular target: Gcr1 (UniProt P07261)
Sequence: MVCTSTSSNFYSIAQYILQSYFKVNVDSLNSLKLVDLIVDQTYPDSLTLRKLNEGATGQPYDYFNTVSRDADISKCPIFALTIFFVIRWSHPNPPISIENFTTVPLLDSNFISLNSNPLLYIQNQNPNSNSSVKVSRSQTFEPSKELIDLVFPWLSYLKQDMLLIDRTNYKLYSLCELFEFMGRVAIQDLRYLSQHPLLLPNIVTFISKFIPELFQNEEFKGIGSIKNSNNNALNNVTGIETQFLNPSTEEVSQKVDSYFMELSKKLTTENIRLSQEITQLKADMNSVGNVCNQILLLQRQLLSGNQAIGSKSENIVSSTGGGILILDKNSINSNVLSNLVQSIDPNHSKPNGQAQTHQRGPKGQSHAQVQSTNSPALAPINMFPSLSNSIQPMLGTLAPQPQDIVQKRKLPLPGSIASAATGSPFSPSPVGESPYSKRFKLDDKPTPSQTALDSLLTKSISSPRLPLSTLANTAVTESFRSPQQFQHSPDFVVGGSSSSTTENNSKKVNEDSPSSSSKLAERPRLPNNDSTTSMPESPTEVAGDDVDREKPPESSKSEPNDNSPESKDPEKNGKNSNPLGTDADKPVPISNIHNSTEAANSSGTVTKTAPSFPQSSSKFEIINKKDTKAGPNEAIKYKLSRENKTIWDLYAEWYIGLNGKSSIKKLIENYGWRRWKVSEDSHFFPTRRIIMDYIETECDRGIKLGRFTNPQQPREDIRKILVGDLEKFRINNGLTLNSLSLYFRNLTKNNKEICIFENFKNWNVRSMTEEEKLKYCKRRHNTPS
Assay: PBM E-score (8-mer binding enrichment) (E-score (-0.5 to 0.5)); higher = stronger / more preferred TF binding
Conditions: protein concentration: 100 nM; construct: GST-full length
Over roughly 33,000 sequences, “E-score (-0.5 to 0.5)” has its median near -0.011; the highest 2% begin near 0.28. This excerpt belongs to a sample that is enriched for the highest values.
In this section we review reported PBM E-score values for a set of sequences.
readout: PBM E-score

biosequence=CACGCACC valueobserved=0.0442
biosequence=ACGAGAGG valueobserved=-0.238
biosequence=ACCCTCCG valueobserved=-0.333

---

Target: Gcr1 (UniProt P07261)
Sequence: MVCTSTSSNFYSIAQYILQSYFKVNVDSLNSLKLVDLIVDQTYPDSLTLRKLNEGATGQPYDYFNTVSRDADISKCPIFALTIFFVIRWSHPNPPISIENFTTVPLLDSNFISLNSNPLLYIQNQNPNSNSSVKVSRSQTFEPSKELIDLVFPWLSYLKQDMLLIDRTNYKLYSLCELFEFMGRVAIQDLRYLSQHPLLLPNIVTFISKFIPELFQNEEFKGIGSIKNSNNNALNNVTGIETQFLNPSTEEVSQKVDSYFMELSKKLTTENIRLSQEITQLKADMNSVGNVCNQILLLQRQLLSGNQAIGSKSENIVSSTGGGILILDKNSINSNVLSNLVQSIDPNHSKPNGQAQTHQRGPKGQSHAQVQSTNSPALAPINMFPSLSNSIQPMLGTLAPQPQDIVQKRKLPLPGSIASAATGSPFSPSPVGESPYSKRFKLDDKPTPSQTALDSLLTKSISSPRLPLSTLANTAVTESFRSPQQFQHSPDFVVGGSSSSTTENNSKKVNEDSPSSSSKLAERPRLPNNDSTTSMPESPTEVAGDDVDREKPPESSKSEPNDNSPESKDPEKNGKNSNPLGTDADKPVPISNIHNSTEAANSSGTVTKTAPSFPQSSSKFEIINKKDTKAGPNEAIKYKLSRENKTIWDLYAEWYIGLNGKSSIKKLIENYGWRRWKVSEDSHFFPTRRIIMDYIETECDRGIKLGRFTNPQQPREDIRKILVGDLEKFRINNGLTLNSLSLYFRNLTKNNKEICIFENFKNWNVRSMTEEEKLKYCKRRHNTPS
Test: PBM E-score (8-mer binding enrichment) (E-score (-0.5 to 0.5)); higher = stronger / more preferred TF binding
Conditions: protein concentration: 100 nM; construct: GST-full length
Over roughly 33,000 sequences, “E-score (-0.5 to 0.5)” has its median near -0.011; the highest 2% begin near 0.28. This is one part of a sample in which the highest values are shown more often than they occur.
readout: PBM E-score

biosequence=AAAGGGTT valueobserved=-0.0414
biosequence=ATGGCGGC valueobserved=0.0606
biosequence=CAGTCCCA valueobserved=0.0489
biosequence=AGTGGAGC valueobserved=0.32
biosequence=GGCTTCCC valueobserved=0.433
biosequence=AAAAGAAC valueobserved=-0.0325
biosequence=AGGATCCC valueobserved=0.379
biosequence=ATACTGGA valueobserved=0.373
biosequence=TAACTGGA valueobserved=0.225
biosequence=CGCTGCTA valueobserved=0.155
biosequence=ATTTGCAC valueobserved=0.0134
biosequence=AGGATCCT valueobserved=0.301
biosequence=TAGCCTCA valueobserved=-0.053
biosequence=TAATGGCA valueobserved=0.295
biosequence=GCAAACTA valueobserved=0.0887
biosequence=GGACTGGA valueobserved=-0.0243
biosequence=CCGTCTCG valueobserved=-0.0715
biosequence=AGATGACG valueobserved=-0.0775
biosequence=ACTGCAAG valueobserved=-0.185
biosequence=GGCTGCTA valueobserved=0.318
biosequence=ACCCGGCA valueobserved=0.125
biosequence=CGCTGCCA valueobserved=0.185
biosequence=ACAGGAAG valueobserved=0.455
biosequence=CAATGGCA valueobserved=-0.159
biosequence=GAGTCCCC valueobserved=-0.0421
biosequence=AAAGGAAG valueobserved=0.361
biosequence=CGACTGGC valueobserved=-0.241
biosequence=CCAGGAAG valueobserved=0.166
biosequence=ACCTGCCT valueobserved=-0.218
biosequence=ATAGGATG valueobserved=0.333
biosequence=CAACTGGA valueobserved=0.212
biosequence=AGAATCCT valueobserved=0.252
biosequence=AATTGTCT valueobserved=-0.147
biosequence=CAAAGAAG valueobserved=0.184
biosequence=AGCAAACT valueobserved=0.0882
biosequence=CCATAGGC valueobserved=-0.00913
biosequence=AAAGCTGC valueobserved=-0.123
biosequence=CAAGGAAG valueobserved=0.143
biosequence=GGGATCCC valueobserved=0.419
biosequence=ACAGGAAC valueobserved=0.144
biosequence=ACAGGAAA valueobserved=0.125
biosequence=CGTGGAGC valueobserved=-0.0506
biosequence=TACCCCGA valueobserved=-0.036
biosequence=CGCTTCCA valueobserved=0.351
biosequence=GAAGCTGC valueobserved=0.406
biosequence=GGCTGCCA valueobserved=0.418
biosequence=GGTCGATA valueobserved=-0.135
biosequence=CCCTTCCA valueobserved=-0.0993
biosequence=AAAGGAAC valueobserved=0.219
biosequence=CACCAAAG valueobserved=0.047
biosequence=ACCAGAAA valueobserved=0.0905
biosequence=AAATGGAA valueobserved=0.239
biosequence=GGCTGCCC valueobserved=0.272
biosequence=GAACGACC valueobserved=-0.165
biosequence=GAGATCCC valueobserved=0.0362
biosequence=GTACTGGA valueobserved=0.235
biosequence=ACGTAGCA valueobserved=-0.079
biosequence=TATTGGAA valueobserved=0.288
biosequence=GCTAGCCA valueobserved=-0.232
biosequence=GAGTCCCA valueobserved=0.313
biosequence=ATAGGAAT valueobserved=0.27
biosequence=AATGCCCG valueobserved=-0.207
biosequence=GATTGGAA valueobserved=0.258
biosequence=AGAGCTGG valueobserved=-0.143
biosequence=CTTCCTCA valueobserved=0.264
biosequence=CCCAGAAA valueobserved=0.283
biosequence=CGCTTCCC valueobserved=0.273
biosequence=CGTGAACG valueobserved=0.0112
biosequence=GAGCCCCA valueobserved=0.169
biosequence=GGCAAACA valueobserved=-0.14
biosequence=GGCTGCAA valueobserved=0.128
biosequence=ATAGGAAG valueobserved=0.414
biosequence=CATGGAAG valueobserved=-0.0984
biosequence=ACGTAGCC valueobserved=0.14
biosequence=CAGCCATA valueobserved=0.022
biosequence=GGCTTCAC valueobserved=-0.14
biosequence=ATAGGATA valueobserved=-0.0284
biosequence=ACAGGACG valueobserved=0.26
